Numbers sourced from ChEMBL document CHEMBL4689842.

# System: U2OS
# ASSAY EXPLANATION: Multiplex assay against U2OS
# Assay type: toxicity, cell-based
# CONDITION: human, 48 h, 1 µM, compound concentration 1 uM, replicate 2

[
  {
    "MOLECULE": "CC(=O)c1cc(-c2cc(C(=O)NC3CC3)ccc2C)c2ncccn12",
    "Population Fragmented Nuclei (%)": 2
  },
  {
    "MOLECULE": "CCn1c(-c2nonc2N)nc2cnc(Oc3cccc(NC(=O)c4ccc(OCCN5CCOCC5)cc4)c3)cc21 [GSK-269962A]",
    "Population Fragmented Nuclei (%)": 10
  },
  {
    "MOLECULE": "Cc1cc2c(cc1N1C(=O)c3cccc4c(CCCO)ccc(c34)C1=O)n(C)c(=O)n2C",
    "Population Fragmented Nuclei (%)": 6
  },
  {
    "MOLECULE": "CC(C)N1CCC(C)(C)c2cc(C#Cc3ccc(C(=O)O)cc3)ccc21",
    "Population Fragmented Nuclei (%)": 14
  }
]

====

# System: HEK-293T
# ASSAY EXPLANATION: Multiplex assay against HEK293T
# Assay type: toxicity, cell-based
# CONDITION: human, 12 h, 10 µM, compound concentration 10 uM, replicate 2
Examples of compounds with documented Population Pyknosed Nuclei (%) follow.
ASSAY METRIC: Population Pyknosed Nuclei (%)

[
  {
    "COMPOUND": "Nc1ccc(C(=O)Nc2cccc(-c3nc(N4CCOCC4)c4oc5ncccc5c4n3)c2)cn1",
    "READOUT VALUE": 70
  },
  {
    "COMPOUND": "CCCn1c(=O)c2[nH]c(C34CC5CC(CC3C5)C4)nc2n(CCC)c1=O [ROLOFYLLINE]",
    "READOUT VALUE": 69
  },
  {
    "COMPOUND": "Cl.Cl.Nc1ncnc2c1c(-c1cccc(OCc3ccccc3)c1)cn2[C@H]1C[C@@H](CN2CCC2)C1",
    "READOUT VALUE": 71
  }
]

====

Catalogue of Total Cell Count readings, one per entry.
# Tested on: HEK-293T
# ASSAY EXPLANATION: Multiplex assay against HEK293T
# Assay type: toxicity, cell-based
# CONDITION: human, 48 h, 10 µM, compound concentration 10 uM, replicate 1

[
  {
    "COMPOUND": "Cc1cc2c(cc1N1C(=O)c3cccc4c(CCCO)ccc(c34)C1=O)n(C)c(=O)n2C",
    "Total Cell Count": 323
  },
  {
    "COMPOUND": "CC(C)N1CCC(C)(C)c2cc(C#Cc3ccc(C(=O)O)cc3)ccc21",
    "Total Cell Count": 624
  },
  {
    "COMPOUND": "Cc1nc(Cc2cccc(C(F)(F)F)c2)sc1-c1ccc(C(N)=O)nc1 [TP-024n]",
    "Total Cell Count": 373
  },
  {
    "COMPOUND": "COc1ccc(NS(=O)(=O)c2sc3ccc(Cl)cc3c2C)cc1N1CCNCC1.Cl",
    "Total Cell Count": 367
  }
]

====

# Test system: U2OS
# ASSAY EXPLANATION: Multiplex assay against U2OS
# Assay type: toxicity, cell-based
# CONDITION: human, 12 h, 1 µM, compound concentration 1 uM, replicate 2

[
  {
    "COMPOUND": "Cc1nc(Cc2cccc(C(F)(F)F)c2)sc1-c1ccc(C(N)=O)nc1 [TP-024n]",
    "RESULT UNIT": "%",
    "Population Pyknosed Nuclei (%)": 5
  },
  {
    "COMPOUND": "FC(F)c1nc2ccccc2n1-c1nc(N2CCOCC2)nc(N2CCOCC2)n1 [ZSTK-474]",
    "RESULT UNIT": "%",
    "Population Pyknosed Nuclei (%)": 5
  },
  {
    "COMPOUND": "CC(C)(C)c1cnc(CSc2cnc(NC(=O)C3CCNCC3)s2)o1 [BMS-387032]",
    "RESULT UNIT": "%",
    "Population Pyknosed Nuclei (%)": 7
  },
  {
    "COMPOUND": "COc1cc2c(Nc3ccc(NC(=O)c4ccccc4)cc3)ncnc2cc1OCCCN1CCOCC1",
    "RESULT UNIT": "%",
    "Population Pyknosed Nuclei (%)": 5
  },
  {
    "COMPOUND": "Nc1ccc(C(=O)Nc2cccc(-c3nc(N4CCOCC4)c4oc5ncccc5c4n3)c2)cn1",
    "RESULT UNIT": "%",
    "Population Pyknosed Nuclei (%)": 17
  },
  {
    "COMPOUND": "CNC(=O)c1nn(C)c2c1C(C)(C)Cc1cnc(Nc3ccc(N4CCN(C)CC4)cc3)nc1-2 [MILCICLIB]",
    "RESULT UNIT": "%",
    "Population Pyknosed Nuclei (%)": 12
  },
  {
    "COMPOUND": "CCn1c(-c2nonc2N)nc2cnc(Oc3cccc(NC(=O)c4ccc(OCCN5CCOCC5)cc4)c3)cc21 [GSK-269962A]",
    "RESULT UNIT": "%",
    "Population Pyknosed Nuclei (%)": 7
  },
  {
    "COMPOUND": "N#Cc1cnc(Nc2cc(NC[C@H]3CNCCO3)c(C(F)(F)F)cn2)cn1 [SRA-737]",
    "RESULT UNIT": "%",
    "Population Pyknosed Nuclei (%)": 4
  },
  {
    "COMPOUND": "Cl.Cl.NC1(c2ccc(-c3nc4ccn5c(=O)[nH]nc5c4cc3-c3ccccc3)cc2)CCC1",
    "RESULT UNIT": "%",
    "Population Pyknosed Nuclei (%)": 4
  }
]
